Tested on: SW-620
Test: NCI tumour cell line growth inhibition, 48 h
Activity calls are given as the source filed them. Rule as the data show it: active = GI50 up to about 1.1 µM and inactive = higher. Where a SMILES comes first, the peptide text is derived from it. The star is where a group is joined. Cbz = O=C(OCc1ccccc1)*
Return exactly one item of 1 for active, -1 for inactive

Some entries whose results are on file:
* Cc1nc(-c2nc(C)c(C(=O)NNC(=O)C[n+]3ccccc3)s2)sc1C(=O)NNC(=O)C[n+]1ccccc1 | -1
* CCOC(=O)CCC(NC(=O)C(CC(=O)OC)NC(=O)OCc1ccccc1)C(=O)NC(CC(=O)OC)C(=O)NC(CCC(=O)OCC)C(=O)NC(CC(=O)OC)C(=O)NC(CCC(=O)OCC)C(=O)NC(CC(=O)OCC)C(=O)OCC (configuration not stated) (Cbz-D(OMe)E(OEt)D(OMe)E(OEt)D(OMe)E(OEt)D(OEt)-OEt; configuration not given here) | -1
* O=[N+]([O-])c1ccc(Cl)cc1C1SCc2nc3ccccc3n21 (configuration not stated) | -1
* O=C1OC(c2ccccc2)=N/C1=C\c1ccc2ccccc2c1 | -1
* CC(C)OP(=S)(NC(=S)c1ccccc1)OC(C)C | -1
* O=[N+]([O-])C(/C(Cl)=C(/Cl)N1CCCCC1)=C1\NCCO1 | -1
* O=C(Nc1ccc(Cl)cc1)c1cc2cc(/N=N/c3ccccc3Cl)ccc2oc1=O | -1
* COc1ccc(-c2cc(-c3ccccc3)nc3c2CC(=O)Nc2ccccc2-3)cc1OC | -1
* C[C@]12CC[C@H]3[C@@H](CC=C4C[C@@H](O)CC[C@@]43C)[C@@H]1C[C@H](N1CCOCC1)[C@@H]2O | -1
* Cc1[nH]n(C2=NCCN2)c(=O)c1C | -1

Consider the record given below.
What call does the record list for O=c1[nH]c(=O)n(C2CC(O)C(CO)O2)cc1C#Cc1ccc(F)cc1 (configuration not stated) ? -1
